Where these numbers come from: patent US20260015350A1

- Tested on: KRas-mediated phosphorylation of ERK in H460 cells
- protocol_description: Inhibition of KRas-mediated phosphorylation of ERK (Cisbio HTRF pERK), H460 cells
- Format: cell-based
- condition_summary: Homo sapiens, NCI-H460, HTRF pERK
measured_metric: IC50 (nM)

Query string: Please report the recorded IC50 for CCc1c(F)ccc2cc(O)cc(-c3ncc4c(N5C[C@@H]6C[C@H](C5)[C@H](O)C6)nc(OCC56CCCN5CC5(CC5)C6)nc4c3F)c12 (stereo partly drawn) [Example 931] .
Result string: 15

Query string: Please report the recorded IC50 for O=S1(=O)NCC2(CCCN(c3nc(OCC45CCCN4CCC5)nc4c(F)c(-c5cc(O)cc(Cl)c5C5CC5)ncc34)C2)N1 (stereo not drawn) [Example 745] .
Result string: 516

Query string: Please report the recorded IC50 for O=C1CC2(CCCN(c3nc(OC[C@@]45CCCN4C[C@H](F)C5)nc4c(F)c(-c5cc(O)cc6ccc(F)c(Cl)c56)ncc34)C2)C(=O)N1 (stereo partly drawn) [Example 774] .
Result string: 434

[I] CCc1c(F)ccc2cc(O)cc(-c3ncc4c(N5CCC[C@@](C)(O)C5)nc(OCC56CCCN5CC(=C(F)F)C6)nc4c3F)c12 (stereo partly drawn) [Example 792]
[II] C=C1CN2CC(=C)CC2(COc2nc(N3C[C@@H]4C[C@H](C3)[C@H](O)C4)c3cnc(-c4cc(O)cc5ccc(F)c(CC)c45)c(F)c3n2)C1 [Example 796]
Query string: When their IC50 values are compared, which is larger, I or II ? Write down the label attached to your selection.
Result string: II
(II: 8 nM, I: 4 nM)

====

- Tested on: KRas-mediated phosphorylation of ERK in H460 cells
- protocol_description: Inhibition of KRas-mediated phosphorylation of ERK (Cisbio HTRF pERK), H460 cells
- Assay type: cell-based
- condition_summary: Homo sapiens, NCI-H460, HTRF pERK
measured_metric: IC50 (nM)

Query string: Query IC50 on KRas-mediated phosphorylation of ERK in H460 cells for CCc1c(F)ccc2cc(O)cc(-c3ncc4c(N5CCCC6(CCS(=O)(=O)N6)C5)nc(OC[C@@]56CCCN5C[C@H](F)C6)nc4c3F)c12 (stereo partly drawn) [Example 643]
Result string: 5

[P] C#Cc1c(F)ccc2cc(O)cc(-c3ncc4c(N5CCC[C@@](C)(O)C5)nc(OC[C@@]56CCCN5[C@@H](CO)CC6)nc4c3F)c12 [Example 809]
[Q] CCc1c(F)ccc2cc(O)cc(-c3ncc4c(N5CCCO[C@@H](CCO)C5)nc(OC[C@@]56CCCN5C[C@H](F)C6)nc4c3F)c12 [Example 578]
Query string: When their IC50 values are compared, which is larger, P or Q ? Write down the label attached to your selection.
Result string: P

====

- tested_on: KRas^G12V (Homo sapiens, UniProt P01116, G12V)
- Construct: Biotinylated KRas (corresponding to amino acids 1-169, produced at Accelegan Inc.); biotin (biotinylated); purchased Accelegan Inc
- Sequence (P01116 1-169 isoform P01116-2 G12V): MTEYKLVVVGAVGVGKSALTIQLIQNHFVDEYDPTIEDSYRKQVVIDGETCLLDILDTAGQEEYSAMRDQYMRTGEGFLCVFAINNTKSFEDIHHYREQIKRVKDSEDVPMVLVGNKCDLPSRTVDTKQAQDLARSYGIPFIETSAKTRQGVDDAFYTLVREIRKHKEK
- protocol_description: KRas binding assay (TR-FRET tracer displacement), KRas G12V
measured_metric: IC50 (nM)

Query string: Please report the recorded IC50 for CCc1c(F)ccc2cc(O)cc(-c3ncc4c(N5CCCC(C6CCNC6=O)C5)nc(OC[C@@]56CCCN5C[C@H](F)C6)nc4c3F)c12 (single isomer, unassigned) [Example 618] .
Result string: 168

Query string: Please report the recorded IC50 for CCc1c(F)ccc2cc(O)cc(-c3ncc4c(N5C[C@@H]6C[C@H](C5)[C@H](O)C6)nc(OC[C@@]56CCCN5C[C@@H](OC)C6)nc4c3F)c12 [Example 925] .
Result string: 2

Query string: Please report the recorded IC50 for CCc1c(F)ccc2cc(O)cc(-c3ncc4c(N5CC6CC(O)C(C6)C5)nc(OC[C@]56CCCN5[C@H](COC(=O)N(C)C)CC6)nc4c3F)c12 (stereo partly drawn) [Example 707] .
Result string: 4

[1] CCc1c(F)ccc2cc(O)cc(-c3ncc4c(N5CCC[C@@](C)(O)C5)nc(OCC5(CN(C)C)CC56CCC6)nc4c3F)c12 (stereo partly drawn) [Example 705]
[2] CCc1c(F)ccc2cc(O)cc(-c3ncc4c(N5CCC[C@@](C)(O)C5)nc(OCC56CC5CCCN(C)C6)nc4c3F)c12 (stereo partly drawn) [Example 828]
[3] CCc1c(F)ccc2cc(O)cc(-c3ncc4c(N5CCC[C@@](C)(O)C5)nc(OCC56CNCC5C6)nc4c3F)c12 (stereo partly drawn) [Example 695]
[4] CCc1c(F)ccc2cc(O)cc(-c3ncc4c(NCc5c[nH]nc5NC(=O)C5COC5)nc(OC[C@@]56CCCN5C[C@H](F)C6)nc4c3F)c12 [Example 649]
[5] CCc1c(F)ccc2cc(O)cc(-c3ncc4c(N5CC6C(=O)NC(=O)C6C5)nc(OC[C@]56CCCN5[C@H](COC(=O)N(C)C)CC6)nc4c3F)c12 (stereo partly drawn) [Example 708]
Query string: Falling order of IC50, please. Please write the labels in the order that was asked for.
Result string: 5, 2, 1, 4, 3
